# assaySystem: PKM2 protein (Homo sapiens)
# Sequence (P14618 whole entry, species assumed): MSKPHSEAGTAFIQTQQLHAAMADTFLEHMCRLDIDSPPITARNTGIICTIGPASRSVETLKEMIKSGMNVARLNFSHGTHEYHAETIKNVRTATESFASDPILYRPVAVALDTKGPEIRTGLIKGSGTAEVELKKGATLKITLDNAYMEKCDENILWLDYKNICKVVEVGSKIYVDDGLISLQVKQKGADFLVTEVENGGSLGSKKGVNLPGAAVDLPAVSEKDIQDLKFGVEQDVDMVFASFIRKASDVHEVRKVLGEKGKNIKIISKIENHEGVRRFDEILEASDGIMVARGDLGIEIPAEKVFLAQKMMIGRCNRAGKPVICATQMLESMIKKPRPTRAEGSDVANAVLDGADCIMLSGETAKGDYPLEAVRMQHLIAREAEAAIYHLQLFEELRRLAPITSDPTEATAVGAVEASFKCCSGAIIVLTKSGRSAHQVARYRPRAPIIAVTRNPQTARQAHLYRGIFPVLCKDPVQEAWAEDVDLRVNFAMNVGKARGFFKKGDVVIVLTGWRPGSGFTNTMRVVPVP
valueType: pKd
Note: pKd values are expressed as the negative base-10 logarithm of concentration in M.

Asked: What value of pKd has been reported for the following compound? C=C(C)[C@@H]1CCC(C)=C[C@H]1c1c(O)cc(C(C)n2nccn2)cc1O (stereo partly shown)
Given back: 5.66

----------
Kindly supply the reported Kp at 0.5 h values for the records listed here.
# procedureText: Pharmacokinetic profiles in brain and plasma after oral administration
# Format: in vivo, mice
# runParameters: male, BALB/c, mouse, brain / plasma, po; 0.5 h, 10 mg/kg p.o.; read-out: B/P ratio
Respond numerically, and do not add a unit to the figure.

Asked: What value of Kp at 0.5 h has been reported for the following compound? C=C(C)[C@@H]1CCC(C)=C[C@H]1c1c(O)cc(CCCCC)cc1O [CBD, reference compound]
Given back: 0.93

Asked: Do the same for C=C(C)[C@@H]1CCC(C)=C[C@H]1c1c(O)cc(C(C)n2nccn2)cc1O (some centres unmarked) please
Given back: 3.31
